biological target: F508delCFTR (Homo sapiens, UniProt P13569, DEL508-508); construct: expressed in transfected cells; host or cells: CFBE41o- human lung derived epithelial cells (CFBE41o-F508delCFTR-HRP), doxycycline-inducible; test: Cell Surface Expression-Horse Radish Peroxidase (CSE-HRP) Assay; type: cell-based; conditions: test compound with co-corrector; maximum at any tested concentration
Sequence (P13569 with tags, fused parts or gaps DEL508-508): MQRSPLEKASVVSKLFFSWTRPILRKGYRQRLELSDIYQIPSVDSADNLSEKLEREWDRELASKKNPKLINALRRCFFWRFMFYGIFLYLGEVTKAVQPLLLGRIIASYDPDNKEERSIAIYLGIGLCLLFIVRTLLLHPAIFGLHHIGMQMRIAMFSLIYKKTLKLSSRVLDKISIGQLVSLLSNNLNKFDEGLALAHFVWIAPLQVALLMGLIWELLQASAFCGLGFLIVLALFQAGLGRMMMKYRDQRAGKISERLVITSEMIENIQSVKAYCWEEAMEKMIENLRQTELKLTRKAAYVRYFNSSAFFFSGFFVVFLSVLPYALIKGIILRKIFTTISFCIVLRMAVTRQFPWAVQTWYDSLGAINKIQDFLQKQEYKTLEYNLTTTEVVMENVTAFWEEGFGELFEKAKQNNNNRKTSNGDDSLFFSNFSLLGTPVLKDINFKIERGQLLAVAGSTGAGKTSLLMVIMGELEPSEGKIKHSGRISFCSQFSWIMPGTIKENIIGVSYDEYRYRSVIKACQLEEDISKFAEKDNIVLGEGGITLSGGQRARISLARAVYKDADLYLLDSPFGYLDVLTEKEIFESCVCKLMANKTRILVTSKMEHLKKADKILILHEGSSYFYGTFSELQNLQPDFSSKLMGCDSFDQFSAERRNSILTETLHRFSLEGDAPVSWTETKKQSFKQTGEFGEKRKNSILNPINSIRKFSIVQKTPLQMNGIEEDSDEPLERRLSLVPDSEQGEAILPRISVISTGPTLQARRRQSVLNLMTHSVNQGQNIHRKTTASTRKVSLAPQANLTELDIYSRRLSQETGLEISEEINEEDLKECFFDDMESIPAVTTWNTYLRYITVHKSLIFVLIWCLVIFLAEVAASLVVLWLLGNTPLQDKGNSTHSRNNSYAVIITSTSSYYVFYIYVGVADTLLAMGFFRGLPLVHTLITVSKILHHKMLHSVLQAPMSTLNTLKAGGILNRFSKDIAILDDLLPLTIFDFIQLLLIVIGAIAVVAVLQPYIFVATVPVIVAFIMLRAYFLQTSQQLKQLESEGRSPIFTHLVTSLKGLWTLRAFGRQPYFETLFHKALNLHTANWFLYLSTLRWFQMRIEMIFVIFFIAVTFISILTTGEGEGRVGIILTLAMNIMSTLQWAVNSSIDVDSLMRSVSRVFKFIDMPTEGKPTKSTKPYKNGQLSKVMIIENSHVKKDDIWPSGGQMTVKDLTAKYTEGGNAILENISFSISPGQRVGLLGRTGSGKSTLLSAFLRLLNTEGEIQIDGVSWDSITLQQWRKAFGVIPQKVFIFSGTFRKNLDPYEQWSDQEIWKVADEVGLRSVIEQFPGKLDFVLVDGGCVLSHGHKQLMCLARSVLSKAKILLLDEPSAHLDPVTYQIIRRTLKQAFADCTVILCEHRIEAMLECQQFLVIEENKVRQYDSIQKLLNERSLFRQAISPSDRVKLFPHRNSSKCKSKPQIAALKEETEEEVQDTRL
quantity_name: Maximum % activity (with co-corrector)

INSERT INTO assay_data (compound, result) VALUES
  ('O=C(NS(=O)(=O)c1cccc2c1CCCN2)C1(c2ccc(C(F)(F)F)nc2Cl)CC1 [GIII-28]', '++ (≥150 and <350)'),
  ('Cc1ccc2c(S(=O)(=O)NC(=O)C3(c4cc(C5CCC5)cnc4N4CCC(OC(C)C)CC4)CC3)cccc2n1 [Example GI-113]', '+++ (≥350)'),
  ('CC(C)Oc1cnc(OC(C)C)c(C2(C(=O)NS(=O)(=O)c3cccc4[nH]ccc34)CC2)c1 [Example GI-66]', '+++ (≥350)'),
  ('Cc1cnc(F)cc1C1(C(=O)NS(=O)(=O)c2cccc3c2CCCN3)CC1 [GIII-7]', '++ (≥150 and <350)');

* * *

biological target: F508delCFTR (Homo sapiens, UniProt P13569, DEL508-508); construct: expressed in transfected cells; host or cells: CFBE41o- human lung derived epithelial cells (CFBE41o-F508delCFTR-HRP), doxycycline-inducible; experiment: Cell Surface Expression-Horse Radish Peroxidase (CSE-HRP) Assay; type: cell-based; details: test compound with co-corrector; maximum at any tested concentration
quantity_name: Maximum % activity (with co-corrector)

INSERT INTO assay_data (molecule, result) VALUES
  ('Cc1ccc2c(S(=O)(=O)NC(=O)C3(c4cc(N5CCC5)cnc4OC(C)C)CC3)cccc2n1 [Example GI-84]', '+++ (≥350)'),
  ('CCc1cnc(N2CCC(COC)CC2)c(C2(C(=O)NS(=O)(=O)c3cccc4ncccc34)CC2)c1 [GII-59]', '+++ (≥350)'),
  ('CC(C)Oc1ncc(CO)cc1C1(C(=O)NS(=O)(=O)c2cccc3ncccc23)CC1 [GIII-35]', '+ (<150)'),
  ('O=C(NS(=O)(=O)c1cccc2[nH]ccc12)C1(c2cc(C3CC3)cnc2N2CCCC2)CC1 [Example GI-34]', '+++ (≥350)'),
  ('O=C(NS(=O)(=O)c1cccc2ncccc12)C1(c2ccc(C(F)(F)F)nc2C2CCC2)CC1 [GII-14]', '+++ (≥350)'),
  ('COc1ncc(C2(C(=O)NS(=O)(=O)c3cccc4c3CCCN4)CC2)c(OC)n1 [GIII-12]', '+ (<150)');

* * *

molecular target: F508delCFTR (Homo sapiens, UniProt P13569, DEL508-508); construct: expressed in transfected cells; host or cells: CFBE41o- human lung derived epithelial cells (CFBE41o-F508delCFTR-HRP), doxycycline-inducible; assay: Cell Surface Expression-Horse Radish Peroxidase (CSE-HRP) Assay; assay type: cell-based; details: with co-corrector; maximum at any tested concentration
quantity_name: Maximum % activity (with co-corrector)

INSERT INTO assay_data (record_smiles, target_under_test, quantity_name, result) VALUES
  ('COc1cc(C2CCC2)cc(OC)c1C1(C(=O)NS(=O)(=O)c2cccc3c2ccn3C)CC1', 'F508delCFTR (Homo sapiens, UniProt P13569, DEL508-508)', 'Maximum % activity (with co-corrector)', '+++ (≥350)'),
  ('Cc1ccc(OC(C)C)c(C2(C(=O)NS(=O)(=O)c3cccc4ncccc34)CC2)c1', 'F508delCFTR (Homo sapiens, UniProt P13569, DEL508-508)', 'Maximum % activity (with co-corrector)', '+++ (≥350)'),
  ('CCOc1ccc(C2(OC)CCC2)cc1C1(C(=O)NS(=O)(=O)c2cccc3ncccc23)CC1', 'F508delCFTR (Homo sapiens, UniProt P13569, DEL508-508)', 'Maximum % activity (with co-corrector)', '+++ (≥350)');
